Each item that follows carries a reported TGI.
# Test system: MALME-3M melanoma
# Assay details: NCI tumour cell line growth inhibition, 48 h
Output spec: scalar in µM, unitless text.

Completed entries (count: 3):
{"columns": ["Molecule", "Quantity", "Experimental value"],
 "data": [
  ["CN(C)CCNC(=O)c1cccc2c(NCC(=O)O)c3ccccc3nc12", "TGI", 35.9],
  ["O=C(NN1C(=O)CSC12CCCCC2)c1[nH]c2ccc(F)cc2c1-c1ccccc1", "TGI", 43.5],
  ["CCC1C(c2cc(OC)c(OC)c(OC)c2)c2cc3c(cc2OC1N1CCCC1)OCO3 (stereo not given)", "TGI", 40.3]
]}

If you can, please state the reported TGI value of CN(C)c1ccc(N=Nc2ccc3nc[nH]c3c2)cc1 .
53
